test method notes: Peak sweetness intensity perception relative to sucrose (potency-normalized comparison)
Parameters: key: Quick: display a peak sweetness intensity faster than that experienced for sucrose; Slow: display a peak sweetness intensity slower than that experienced for sucrose
conditions: sucrose as reference
Where a SMILES comes first, the peptide text is derived from it.

molecule	Onset Speed Relative to Sucrose
COC(=O)[C@H](Cc1ccccc1)NC(=O)[C@@H](N)CC(=O)O [Aspartame] (H-Asp-Phe-OMe)	Slow
OC[C@@H](O)[C@@H](O)CO	Quick
CC1=CC(=O)NS(=O)(=O)O1	Quick
O=C1NS(=O)(=O)c2ccccc21	Quick
OC[C@@H](O)[C@H](O)[C@@H](O)CO	Quick
COC(=O)[C@H](Cc1ccccc1)NC(=O)[C@H](CC(=O)O)NCCC(C)(C)C	Slow
OC[C@H]1O[C@H](O[C@]2(CCl)O[C@H](CCl)[C@@H](O)[C@@H]2O)[C@H](O)[C@@H](O)[C@H]1Cl	Slow
OC[C@@H](O)[C@@H](O)[C@H](O)[C@@H](O)CO	Quick
